Would you kindly list pIC50 for each of these molecules?
# ASSAY SYSTEM: FP receptor (Homo sapiens (Human), UniProt P43088)
# Sequence (P43088 whole entry): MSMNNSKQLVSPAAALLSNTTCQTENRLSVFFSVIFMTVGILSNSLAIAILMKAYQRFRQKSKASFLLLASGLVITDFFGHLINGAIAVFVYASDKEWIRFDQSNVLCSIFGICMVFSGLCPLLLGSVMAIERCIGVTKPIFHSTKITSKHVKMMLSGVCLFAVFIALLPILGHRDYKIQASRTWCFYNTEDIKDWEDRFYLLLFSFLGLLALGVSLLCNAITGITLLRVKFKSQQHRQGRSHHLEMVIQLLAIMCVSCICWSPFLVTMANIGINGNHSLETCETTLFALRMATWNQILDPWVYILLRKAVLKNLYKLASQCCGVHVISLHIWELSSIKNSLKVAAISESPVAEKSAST
# PROCEDURE DETAILS: In vitro test of inhibition of human FP receptor activity (PGF2α-induced calcium flux in FP-expressing CHEM1 cells)
# CONDITION LABEL: PGF2α 2 nM, some mean values of multiple determinations
Answers are plain numbers, as −log10 of the molar value.

* Cc1c(N2CCCCC2)nc2ccc(Br)cc2c1C(=O)NCC(CCC(=O)O)c1ccccc1OC(F)(F)F (single isomer, unassigned; (-)) [Example 127] | 9.10
* Cc1c(N2CCOC(C)C2)nc2ccc(Br)cc2c1C(=O)NCC(CCC(=O)O)c1ccccc1Cl (stereo not shown) [Example 89] | 6.46
* Cc1c(N2CCCC(F)C2)nc2ccc(Br)cc2c1C(=O)NCC(CCC(=O)O)c1c(Cl)ccc(Cl)c1Cl (single isomer, unassigned) [Example 221] | 8.08
* Cc1c(N2CCCC(F)C2)nc2ccc(Br)cc2c1C(=O)NCC(CCC(=O)O)c1ccccc1Cl (single isomer, unassigned; (-)) [Example 185] | 8.40

State recorded pIC50 for all listed molecules.
1. Cc1c(N2CCCCC2C)nc2ccc(Br)cc2c1C(=O)NCC(CCC(=O)O)c1ccccc1Cl (stereo not shown) [Example 108]
2. CCC1CCCN(c2nc3ccc(Br)cc3c(C(=O)NCC(CCC(=O)O)c3ccccc3OC(F)(F)F)c2C)C1 (single isomer, unassigned; (-)) [Example 207]
3. Cc1c(N2CCCC(F)(F)C2)nc2ccc(Br)cc2c1C(=O)NCC(CCC(=O)O)c1c(Cl)ccc(Cl)c1Cl (single isomer, unassigned; (+)) [Example 178]
4. Cc1c(N2CCCC(F)C2)nc2ccc(Br)cc2c1C(=O)NCC(CCC(=O)O)c1c(Cl)ccc(Cl)c1Cl (single isomer, unassigned) [Example 224]
5. Cc1c(N2CCCC(F)(F)C2)nc2ccc(Br)cc2c1C(=O)NCC(CCC(=O)O)c1ccccc1OC(F)(F)F (single isomer, unassigned; (+)) [Example 134]
6. Cc1ccccc1C(CCC(=O)O)CNC(=O)c1c(C)c(N2CCCC(F)(F)C2)nc2ccc(Br)cc12 (single isomer, unassigned; (-)) [Example 230]

Output:
[6.44, 7.66, 7.25, 7.42, 8.31, 7.92]

* * *

# ASSAY SYSTEM: UniProtKB P43088
# PROCEDURE DETAILS: In vitro test of inhibition of human FP receptor activity (PGF2α-induced calcium flux in FP-expressing CHEM1 cells)
# CONDITION LABEL: PGF2α 2 nM, some mean values of multiple determinations
pIC50: −log10 of the molar value.
Mark yes (1) for reported pIC50 of 8 or greater; mark no (0) for anything smaller.

# count of solved cases: 2
- Cc1c(NC2CCC2)nc2ccc(Br)cc2c1C(=O)NCC(CCC(=O)O)c1ccccc1Cl (racemic): no (0)
- Cc1c(N2CCCC2)nc2ccc(Br)cc2c1C(=O)NCC(CCC(=O)O)c1ccccc1C(F)(F)F (single isomer, unassigned; (-)) [Example 116]: yes (1)

Input: State whether the measured pIC50 reaches 8, counting equality as reaching it, for Cc1c(N2CCCCC2)nc2ccc(Br)cc2c1C(=O)NCC(CCC(=O)O)c1ccccc1OC(F)(F)F (single isomer, unassigned; (+)) [Example 128]
Output: yes (1)

Input: State whether the measured pIC50 reaches 8, counting equality as reaching it, for Cc1c(N2CCCCCC2)nc2ccc(Br)cc2c1C(=O)NCC(CCC(=O)O)c1c(F)ccc(F)c1Cl (single isomer, unassigned; (+)) [Example 219]
Output: no (0)

Input: State whether the measured pIC50 reaches 8, counting equality as reaching it, for CCC1CCCN(c2nc3ccc(Br)cc3c(C(=O)NCC(CCC(=O)O)c3cc(F)ccc3F)c2C)C1 (racemic) [Example 226]
Output: yes (1)

* * *

Would you kindly list pIC50 for each of these molecules?
# ASSAY SYSTEM: FP receptor (Homo sapiens (Human))
# PROCEDURE DETAILS: In vitro test of inhibition of human FP receptor activity (PGF2α-induced calcium flux in FP-expressing CHEM1 cells)
# CONDITION LABEL: PGF2α 2 nM, some mean values of multiple determinations
Give bare numbers, as −log10 of the molar value.

• COc1ccccc1C(CCC(=O)O)CNC(=O)c1c(C)c(N2CCCCC2)nc2ccc(Br)cc12 (single isomer, unassigned; (-)) [Example 236] = 7.96
• Cc1c(N2CCCC(C)C2)nc2ccc(Br)cc2c1C(=O)NCC(CCC(=O)O)c1ccccc1OC(F)(F)F (single isomer, unassigned; (-)) [Example 210] = 9.17
• Cc1c(N2CCCC(C)(C)C2)nc2ccc(Br)cc2c1C(=O)NCC(CCC(=O)O)c1ccccc1Cl (single isomer, unassigned; (+)) [Example 44] = 6.92
• CCCCNc1nc2ccc(Br)cc2c(C(=O)NCC(CCC(=O)O)c2ccccc2Cl)c1C (racemic) = 6.35

State recorded pIC50 for all listed molecules.
1. Cc1c(N2CCCC(F)(F)C2)nc2ccc(Br)cc2c1C(=O)NCC(CCC(=O)O)c1ccccc1Cl (racemic) [Example 50]
2. CCC1CCCN(c2nc3ccc(Br)cc3c(C(=O)NCC(CCC(=O)O)c3ccccc3Cl)c2C)C1 (single isomer, unassigned; (+)) [Example 61]
3. Cc1c(NCCc2ccccc2)nc2ccc(Br)cc2c1C(=O)NCC(CC(=O)O)c1c(F)cccc1Cl (racemic)
4. Cc1c(N2CC[C@@H](F)C2)nc2ccc(Br)cc2c1C(=O)NCC(CCC(=O)O)c1ccccc1Cl (single isomer, unassigned; (+)) [Example 68]
5. Cc1c(N2CCSCC2)nc2ccc(Br)cc2c1C(=O)NCC(CCC(=O)O)c1cc(F)ccc1Cl (racemic)
6. Cc1c(N2CCCCC2)nc2ccc(Br)cc2c1C(=O)NCC(CC(=O)O)c1c(F)cccc1Cl (single isomer, unassigned; (+)) [Example 3]
7. Cc1c(N2CCCCC2)nc2ccc(Br)cc2c1C(=O)NCC(CCC(=O)O)c1cc(F)ccc1F (single isomer, unassigned; (+)) [Example 257]

Output:
8.52
9.08
6.77
7.85
7.60
7.04
7.82

Input: Identify the reported pIC50 for the following entry. Cc1c(N2CCCC(F)(F)C2)nc2ccc(Br)cc2c1C(=O)NCC(CCC(=O)O)c1c(F)ccc(F)c1Cl (racemic) [Example 155]
Output: 8.52
